Assay read-out IC50 on DGKα (Homo sapiens, UniProt P23743); records merged from the literature.
Sequence (P23743 whole entry): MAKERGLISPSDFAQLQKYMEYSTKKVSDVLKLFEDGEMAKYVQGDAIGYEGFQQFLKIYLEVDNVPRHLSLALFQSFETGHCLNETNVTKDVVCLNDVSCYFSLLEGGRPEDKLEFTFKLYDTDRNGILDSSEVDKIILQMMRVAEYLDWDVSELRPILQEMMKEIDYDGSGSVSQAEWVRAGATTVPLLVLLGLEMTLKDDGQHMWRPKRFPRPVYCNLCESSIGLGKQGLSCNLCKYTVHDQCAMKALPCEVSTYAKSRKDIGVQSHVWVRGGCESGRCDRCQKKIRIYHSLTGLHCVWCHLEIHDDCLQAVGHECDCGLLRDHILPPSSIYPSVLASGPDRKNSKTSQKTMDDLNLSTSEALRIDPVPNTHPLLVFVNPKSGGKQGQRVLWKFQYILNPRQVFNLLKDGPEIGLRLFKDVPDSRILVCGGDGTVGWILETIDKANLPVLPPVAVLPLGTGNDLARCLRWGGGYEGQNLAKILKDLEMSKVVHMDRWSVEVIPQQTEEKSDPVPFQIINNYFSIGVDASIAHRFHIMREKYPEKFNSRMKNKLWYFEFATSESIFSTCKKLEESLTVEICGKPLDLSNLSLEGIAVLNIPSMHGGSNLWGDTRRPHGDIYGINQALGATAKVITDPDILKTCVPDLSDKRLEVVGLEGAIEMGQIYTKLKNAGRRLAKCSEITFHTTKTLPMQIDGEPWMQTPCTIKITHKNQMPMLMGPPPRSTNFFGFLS
assay-readout: IC50 (nM)

Reported IC50 ( `Cn1nnc2nc(N(CC(F)F)c3ccnc(C#CC4(C)CC4)c3)c3c(F)c(F)ccc3c21` ) = 61.8

Reported IC50 ( `Cn1c(=O)c(C#N)c(N2CCC(Oc3ccc(Cl)cc3)CC2)c2ccc(C3COC3)cc21` ) = 16

Reported IC50 ( `Cn1c(=O)c(C#N)c(N2CCC(Cc3ccc(C#N)cc3)CC2)c2ccccc21` ) = 15

Reported IC50 ( `COc1ccc2c(N3CCC(Oc4ccc(C(F)(F)F)cc4)CC3)c(C#N)c(=O)n(C)c2c1` ) = 14

A = Cn1c(=O)c(C#N)c(N2CCC(Oc3ccc(Br)cc3)CC2)c2ccccc21
B = Cn1nnc2nc(N3CCCc4c(C#CC(C)(C)O)cccc43)c3c(F)cccc3c21
C = COc1ccccc1OC1CCN(c2c(C(N)=O)c(=O)n(C)c3ccc(C)cc23)CC1
D = CC1CCC(C)N1Cc1nnnn1-c1ccc(Cl)c(C#N)c1 (stereo not drawn)
Rank the items in ascending order with respect to IC50. Please write the labels in the order that was asked for.
A, B, C, D
(A: 13 nM, B: 19.4 nM, C: 57 nM, D: 54000 nM)

###

Assay read-out pIC50 on DGKα (Homo sapiens, UniProt P23743); records merged from the literature.
pIC50: −log10 of the molar value.

Some compounds with recorded pIC50:
Reported pIC50 ( Cn1c(=O)c(C#N)c(N(C)[C@H]2CC[C@@H](N(CC3COCCO3)c3ccc(F)cc3)CC2)c2nc(C#N)ccc21 (stereo partly shown) ) = > 8.00

Reported pIC50 ( `Cc1cc(F)c(F)cc1N(CC1CCC1)[C@H]1CC[C@H](N(C)c2c(C#N)c(=O)n(C)c3ccc(Cl)nc23)CC1` ) = ≤ 6.00

Reported pIC50 ( `CC(C)N(Cc1nnnn1-c1ccc(Cl)c(C#N)c1)C1CCCCC1` ) = 5.10

***
Reported pIC50 ( `Cn1c(=O)c(C#N)c(N2CCC(Oc3cccc(OC(F)(F)F)c3)CC2)c2ccc(C3COC3)cc21` ) = 7.77

Reported pIC50 ( `Cn1c(=O)c(C#N)c(N(C)[C@H]2CC[C@@H](N(CC3CCC3)c3ccc4c(c3)OC(F)(F)O4)CC2)c2nc(C#N)ccc21` ) = 7.00 to 8.00

Reported pIC50 ( `Cn1c(=O)c(C#N)c(N(C)[C@H]2CC[C@@H](N(c3ccc(F)cc3F)C3CC3)CC2)c2nc(Cl)ccc21` ) = 6.00 to 7.00

Reported pIC50 ( `Cn1c(=O)c(C#N)c(N2CCC(Sc3ccccc3)CC2)c2ccc(N3CCCC3=O)cc21` ) = 7.85

###

Assay read-out pIC50 on DGKα (Homo sapiens); records merged from the literature.
pIC50: −log10 of the molar value.
assay-readout: pIC50

Reported pIC50 ( CCOC(=O)C1CCC(N(Cc2nnnn2-c2ccc(Cl)c(C#N)c2)C2CC2)CC1 (stereo not shown) ) = 4.89

1 = CN(Cc1nnnn1-c1cccc(C(F)(F)F)c1)C1CCCCC1
2 = Cn1nnc2nc(N3CCCc4c(C#CC5(C(F)(F)F)CC5)cccc43)c3ccc(Cl)cc3c21
3 = COCCOc1ccc2c(N3CCC(Oc4ccc(OC(F)(F)F)cc4)CC3)c(C#N)c(=O)n(C)c2c1
Please rank these compounds by pIC50 in descending order. Please write the labels in the order that was asked for.
3, 2, 1
